test system: Aedes aegypti larvae; test: larval motility relative to same well at 0 h (fraction); higher = more motile (less active compound), active = 0.4 or less; conditions: 10 µM; 24 h
measured-endpoint: larval motility
Provide a numeric answer; units are not to be included.

Answered examples (3):
>>> numeric_value("CNCC(=O)OCc1cccnc1N(C)C(=O)OC(C)[n+]1cnn(C[C@](O)(c2cc(F)ccc2F)[C@@H](C)c2nc(-c3ccc(C#N)cc3)cs2)c1 (stereo partly specified)")
0.736
>>> numeric_value("CC(C)Cn1c(=O)n(C)c(=O)c2c(-c3cncn3C)n(Cc3cccc4ccccc34)nc21")
0.874
>>> numeric_value("OB1OCc2c1ccc(Cl)c2F")
1.19

Which value of larval motility has been reported for O=C1C=C(c2ccccc2)S(=O)(=O)c2ccccc21 in the records?
1.01

Would you kindly share the measured larval motility for CCCCc1ccc(S(=O)(=O)Nc2cc(C)on2)cc1 ?
0.633

What measured larval motility goes with CCCCCCC1c2ccc(O)cc2Oc2cc(O)ccc21 ?
0.989

Looking for the measured larval motility of CC(=O)Oc1ccccc1C(=O)Nc1ncc([N+](=O)[O-])s1 , can you help?
0.824

Given Nc1cc(-c2nc3ccccc3[nH]2)n[nH]c1=O , state its recorded larval motility.
1.18

Fill blank: measured larval motility of the compound OB1OCc2cc(Cl)ccc21 is ____.
1.04

// query larval motility value for entry CCCCN1C[C@H](O)[C@@H](O)[C@H](O)[C@H]1CO
0.809

What value of larval motility has been reported for the following compound? O=C(O)c1ccc(-c2ccc(O[C@H]3O[C@H](CO)[C@@H](O)[C@H](O)[C@@H]3O)cc2)cc1
1.22

What measured larval motility goes with Oc1cc(-c2cccc3ccccc23)[nH]n1 ?
0.554

Consider the compound Nc1nnc(-c2ccc(Cl)cc2)s1 and give its measured larval motility.
0.877

Give the measured larval motility of CN(C/C=C/C#CC(C)(C)C)Cc1cccc2ccccc12 .
0.879

I have this compound here, CC(C)C(=O)N[C@H]1[C@H]([C@H](O)[C@H](O)CO)OC(C(=O)O)=C[C@@H]1N=[N+]=[N-] , and I need its recorded larval motility.
1.56

Fill blank: measured larval motility of the compound O=C(CCCC(F)(F)F)N1CCC(c2nc(-c3nccs3)no2)CC1 is ____.
1.08

Param item = O=C(NCc1ccc2c3c(cccc13)C(=O)N2)c1cccs1 ; retrieve measured larval motility.
0.861

Can you share its larval motility? I mean this compound: O=C(O)c1ccccc1Sc1ncnc2sc3c(c12)CCC3
0.722

Which larval motility is reported for this compound? COc1ccc2nc(-c3ccccc3)cc(O)c2c1
0.908

Quick check: larval motility of COc1ccc(NC(=O)CC2Sc3ncnn3C2=O)cc1 (stereo unspecified) ?
0.333
